- measurement notes: Biodistribution in OFA rat liver at 1 mg/kg, iv after 2 hrs
- Format: ADME, organism-based
- Parameters: dose 1 mg/kg, route intravenous
- measurement context: read-out: Drug uptake
concentration at 2 h reference
experimental readout: concentration at 2 h (ng/g)

[[record]]
smiles_structure = "O=C(c1ccc(Cl)cc1)N1CCC(=Cc2ccc(C3=NCCO3)cc2)CC1"
experimental_readout = "concentration at 2 h"
reported_measurement = 301

[[record]]
smiles_structure = "O=C(c1ccc(Cl)cc1)N1CCN(Cc2ccc(-n3ccnc3)cc2)CC1"
experimental_readout = "concentration at 2 h"
reported_measurement = 2010

[[record]]
smiles_structure = "CN(C)Cc1ccc(CN2CCN(C(=O)c3ccc(OC(F)(F)F)cc3)CC2)cc1"
experimental_readout = "concentration at 2 h"
reported_measurement = 2420

[[record]]
smiles_structure = "CN1CCN(c2ccc(CN3CCN(S(=O)(=O)c4ccc(Cl)cc4)CC3)cc2)CC1"
experimental_readout = "concentration at 2 h"
reported_measurement = 6600


Data origin: ChEMBL document CHEMBL1150355
